// data source = patent US20250136606A1

- Experimental System: TRPML1 (Homo sapiens)
- Experiment: Fluorescent TRPML1 assay (Fluo4-AM calcium fluorescence in doxycycline-induced HEK-293 Trex cells)
- Format: cell-based
- Condition Summary: fluorescent calcium assay
pEC50: −log10 of the molar value.
Quantity Measured: pEC50

# example entries with known answers
Inquiry: Quick one: pEC50 for C[C@H]1CN(C(=O)OC(C)(C)C)CCN1c1ncnc2c1c(C1CC1)cn2-c1cccc(F)c1 [Compound 127] ?
Reply text: > 7.00

Inquiry: Continue with C[C@@H]1CN(c2ncnc3c2c(-c2ccccc2)cn3-c2cccnc2)[C@@H](C)CN1C(=O)OC(C)(C)C [Compound 169]
Reply text: > 7.00

Inquiry: Continue with C[C@@H]1CN(c2ncnc3c2c(-c2cccnc2)cn3-c2cc(F)cc(Cl)c2)CCN1C(=O)OC(C)(C)C [Compound 222]
Reply text: > 7.00

Inquiry: Continue with CC(C)(C)OC(=O)N1CCN(c2ncnc3c2c(C2CC2)cn3-c2cc(C#N)ccn2)CC12CC2 [Compound 396]
Reply text: 6.30 to 7.00

Inquiry: Continue with C[C@H]1CN(C(=O)OC(C)(C)C)CCN1c1ncnc2c1c(C1CC1)cn2-c1ncc(C#N)s1 [Compound 397]
Reply text: < 5.70

Let us move to another entry and its pEC50.
Inquiry: Quick one: pEC50 for C[C@H]1CN(C(=O)OC(C)(C)C)CCN1c1ncnc2c1c(-c1ccccn1)cn2-c1cccc(OC(F)(F)F)c1 [Compound 279] ?
Reply text: 6.30 to 7.00

###

- Experimental System: TRPML3 (Homo sapiens, UniProt Q8TDD5)
- Construct: expressed in transfected cells
- Sequence (Q8TDD5 whole entry): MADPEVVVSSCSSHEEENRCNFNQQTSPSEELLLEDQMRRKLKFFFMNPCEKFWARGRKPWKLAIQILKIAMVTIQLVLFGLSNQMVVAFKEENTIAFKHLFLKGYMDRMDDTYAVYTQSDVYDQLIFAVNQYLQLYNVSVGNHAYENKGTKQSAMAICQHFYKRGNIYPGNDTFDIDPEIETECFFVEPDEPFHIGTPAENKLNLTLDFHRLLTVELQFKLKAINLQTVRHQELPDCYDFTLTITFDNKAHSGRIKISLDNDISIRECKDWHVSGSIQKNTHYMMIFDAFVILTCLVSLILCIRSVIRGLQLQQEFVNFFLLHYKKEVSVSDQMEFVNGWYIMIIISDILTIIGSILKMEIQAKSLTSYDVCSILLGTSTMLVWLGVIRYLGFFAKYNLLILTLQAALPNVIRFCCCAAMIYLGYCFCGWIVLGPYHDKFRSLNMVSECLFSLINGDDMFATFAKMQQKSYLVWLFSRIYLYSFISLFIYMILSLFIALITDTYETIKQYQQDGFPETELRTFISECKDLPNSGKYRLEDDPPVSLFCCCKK
- Experiment: Fluorescent TRPML3 assay (performed as for TRPML1, substituting the TRPML3 subtype)
- Format: cell-based
- Condition Summary: fluorescent calcium assay
Quantity Measured: EC50

Inquiry: Quick one: EC50 for C[C@@H]1CN(c2ncnc3c2c(-c2ccccc2F)cn3-c2cc(F)ccn2)[C@@H](C)CN1C(=O)OC(C)(C)C ?
Reply text: < 100 nM

Inquiry: Continue with C[C@@H]1CN(c2ncnc3c2c(C2CC2)cn3-c2cccc(Cl)c2)[C@@H](C)CN1C(=O)OC(C)(C)C
Reply text: < 100 nM

Inquiry: Continue with C[C@H]1CN(C(=O)OC(C)(C)C)CCN1c1ncnc2c1c(-c1ccccc1F)cn2-c1nc(C#N)cs1
Reply text: 100 to 500 nM

Inquiry: Continue with CCc1cn(-c2cc(C#N)ccn2)c2ncnc(N3C[C@@H](C)N(C(=O)OC(C)(C)C)C[C@@H]3C)c12
Reply text: < 100 nM

More entries:
Inquiry: Quick one: EC50 for Cc1nccnc1-c1cn(-c2cccc(Cl)c2)c2ncnc(N3CCN(C(=O)OC(C)(C)C)CC3C)c12 (stereo not drawn) ?
Reply text: 100 to 500 nM

Inquiry: Continue with C[C@@H]1CN(c2ncnc3c2c(-c2ccccn2)cn3-c2cc(F)cc(Cl)c2)CCN1C(=O)OC(C)(C)C
Reply text: < 100 nM

###

- Experimental System: TRPML3 (Homo sapiens, UniProt Q8TDD5)
- Construct: expressed in transfected cells
- Experiment: Fluorescent TRPML3 assay (performed as for TRPML1, substituting the TRPML3 subtype)
- Type: cell-based
- Condition Summary: fluorescent calcium assay
pEC50: −log10 of the molar value.
This section presents compounds with their documented pEC50 values.

Inquiry: Quick one: pEC50 for CC(C)(C)OC(=O)N1CCN(c2ncnc3c2c(C2CC2)cn3-c2cc(C#N)ccn2)C2(CC2)C1 ?
Reply text: > 7.00

Inquiry: Continue with CC1CN(C(=O)OC(C)(C)C)CCN1c1ncnc2c1c(C1CCOCC1)cn2-c1cccc(Cl)c1 (stereo not drawn)
Reply text: > 7.00

More entries:
Inquiry: Quick one: pEC50 for CCN(CC)c1cn(-c2cc(C#N)ccn2)c2ncnc(N3CCN(C(=O)OC(C)(C)C)[C@H](C)C3)c12 ?
Reply text: > 7.00

###

- Experimental System: TRPML1 (Homo sapiens, UniProt Q9GZU1)
- Sequence (Q9GZU1 whole entry L15A/L16A/L577A/L578A, form open): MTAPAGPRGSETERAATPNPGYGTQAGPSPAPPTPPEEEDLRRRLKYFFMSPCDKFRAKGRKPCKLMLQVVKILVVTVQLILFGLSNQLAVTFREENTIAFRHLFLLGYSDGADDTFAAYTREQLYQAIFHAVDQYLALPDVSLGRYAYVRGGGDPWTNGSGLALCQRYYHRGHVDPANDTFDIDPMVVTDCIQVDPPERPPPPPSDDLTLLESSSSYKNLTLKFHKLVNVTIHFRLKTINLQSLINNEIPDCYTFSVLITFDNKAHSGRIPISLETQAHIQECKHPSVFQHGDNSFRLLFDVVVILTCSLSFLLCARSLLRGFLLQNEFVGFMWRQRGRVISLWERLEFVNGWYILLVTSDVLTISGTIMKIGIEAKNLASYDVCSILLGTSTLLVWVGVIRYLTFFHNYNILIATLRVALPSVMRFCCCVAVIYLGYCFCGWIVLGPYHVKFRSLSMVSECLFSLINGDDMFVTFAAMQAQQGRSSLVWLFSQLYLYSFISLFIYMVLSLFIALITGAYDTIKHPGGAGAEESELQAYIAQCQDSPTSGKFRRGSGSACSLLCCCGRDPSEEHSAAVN
- Experiment: Fluorescent TRPML1 assay (Fluo4-AM calcium fluorescence in doxycycline-induced HEK-293 Trex cells)
- Assay type: cell-based
- Condition Summary: fluorescent calcium assay
- Procedure: HEK-293 Trex cells were stably transfected with a construct consisting of the human coding sequence for TRPML1 cloned into the […] plasmid pCDNA5 T/O. Mutations were introduced into the TRPML1 sequence to facilitate expression on the cell surface (Silvia Vergarajauregui, Rosa Puertollano, Traffic. 2006 March; 7(3): 337-353). […] The Trypsin-EDTA is diluted with growth media, and cells are counted. […] EC50 values were calculated using a non-linear regression of Prism. […]
pEC50: −log10 of the molar value.
Quantity Measured: pEC50

Inquiry: Quick one: pEC50 for C[C@H]1CN(C(=O)OC(C)(C)C)CCN1c1ncnc2c1c(C1CC1)cn2-c1cccc(OC(F)(F)F)c1 ?
Reply text: > 7.00

Inquiry: Continue with C[C@H]1CN(C(=O)OC(C)(C)C(F)(F)F)CCN1c1ncnc2c1c(C1CC1)cn2-c1cc(C#N)ccn1
Reply text: > 7.00

Inquiry: Continue with C[C@@H]1CN(c2ncnc3c2c(C2CC2)cn3-c2cc(F)c(F)c(F)c2)CCN1C(=O)OC(C)(C)C
Reply text: > 7.00

More entries:
Inquiry: Quick one: pEC50 for CCc1cncc(-n2cc(C3CC3)c3c(N4CCN(C(=O)OC(C)(C)C)CC4)ncnc32)c1 ?
Reply text: 6.30 to 7.00

Inquiry: Continue with C[C@H]1CN(C(=O)OC(C)(C)C)CCN1c1ncnc2c1c(N(C)C)cn2-c1cc(C#N)ccn1
Reply text: > 7.00

Inquiry: Continue with C[C@H]1CN(C(=O)OC(C)(C)C)CCN1c1ncnc2c1c(-c1ccccc1)cn2-c1cnn(C)c1
Reply text: 6.30 to 7.00

Inquiry: Continue with C[C@H]1CN(C(=O)OC(C)(C)C)CCN1c1ncnc2c1c(-c1cccnc1)cn2-c1cccc(Cl)c1
Reply text: > 7.00

Inquiry: Continue with C[C@H]1CN(C(=O)OC(C)(C)C)CCN1c1ncnc2c1c(C1COC1)cn2-c1cccc(F)c1
Reply text: < 5.70

###

This section presents compounds with their documented EC50 values.
- Experimental System: TRPML3 (Homo sapiens)
- Construct: expressed in transfected cells
- Experiment: Fluorescent TRPML3 assay (performed as for TRPML1, substituting the TRPML3 subtype)
- Format: cell-based
- Condition Summary: fluorescent calcium assay

# example entries with known answers
Inquiry: Request body: readout EC50, system TRPML3 (Homo sapiens), query C[C@@H]1CN(c2ncnc3c2c(C2CC2)cn3-c2cc(F)cc(Cl)c2)CCN1C(=O)OC(C)(C)C . Return the value.
Reply text: < 100 nM

Inquiry: Continue with COc1cncc(-n2cc(C3CC3)c3c(N4CCN(C(=O)OC(C)(C)C)CC4)ncnc32)c1
Reply text: 100 to 500 nM

Inquiry: Continue with C[C@H]1CN(C(=O)OC(C)(C)C)CCN1c1ncnc2c1c(C1CC1)cn2C1CCCC(F)(F)C1 (some centres unmarked)
Reply text: 500 to 2000 nM

Inquiry: Continue with CC(C)(CF)OC(=O)N1CCN(c2ncnc3c2c(-c2ccccc2F)cn3-c2cncnc2)CC1
Reply text: 500 to 2000 nM

More entries:
Inquiry: Request body: readout EC50, system TRPML3 (Homo sapiens), query Cc1ccc(Cl)cc1-n1cc(-c2cnccn2)c2c(N3CCN(C(=O)OC(C)(C)C)CC3C)ncnc21 (centres unmarked) . Return the value.
Reply text: 100 to 500 nM

###

This section presents molecules with their documented EC50 values.
- Experimental System: TRPML2 (Homo sapiens, UniProt Q8IZK6)
- Construct: expressed in transfected cells
- Sequence (Q8IZK6 whole entry): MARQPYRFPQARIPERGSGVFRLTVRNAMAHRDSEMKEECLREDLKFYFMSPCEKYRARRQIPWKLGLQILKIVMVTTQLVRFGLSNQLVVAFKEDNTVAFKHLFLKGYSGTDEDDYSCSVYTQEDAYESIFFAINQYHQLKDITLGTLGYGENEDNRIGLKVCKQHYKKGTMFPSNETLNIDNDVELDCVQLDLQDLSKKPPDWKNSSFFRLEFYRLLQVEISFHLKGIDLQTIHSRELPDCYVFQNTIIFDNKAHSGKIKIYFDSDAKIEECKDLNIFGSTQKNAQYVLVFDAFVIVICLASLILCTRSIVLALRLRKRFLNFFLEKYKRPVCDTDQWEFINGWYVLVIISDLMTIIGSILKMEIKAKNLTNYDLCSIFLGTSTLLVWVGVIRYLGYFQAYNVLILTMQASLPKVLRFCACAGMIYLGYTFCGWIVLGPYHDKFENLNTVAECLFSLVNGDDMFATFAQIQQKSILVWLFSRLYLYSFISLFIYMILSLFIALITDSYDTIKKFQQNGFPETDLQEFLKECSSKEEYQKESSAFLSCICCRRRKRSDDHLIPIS
- Experiment: Fluorescent TRPML2 assay (performed as for TRPML1, substituting the TRPML2 subtype)
- Assay type: cell-based

Inquiry: Quick one: EC50 for C#Cc1ccnc(-n2cc(C(F)(F)F)c3c(N4C[C@@H](C)N(C(=O)OC(C)(C)C)C[C@@H]4C)ncnc32)c1 [Compound 716] ?
Reply text: 0.5 to 2 µM

Inquiry: Continue with C[C@@H]1CN(c2ncnc3c2c(C(F)(F)F)cn3-c2cc(F)ccn2)[C@@H](C)CN1C(=O)OC(C)(C)C [Compound 505]
Reply text: > 2 µM

Inquiry: Continue with Cc1cn(-c2ccccc2)c2ncnc(N3C[C@@H](C)N(C(=O)OC(C)(C)C)C[C@@H]3C)c12 [Compound 668]
Reply text: 0.5 to 2 µM

###

- Experimental System: TRPML2 (Homo sapiens, UniProt Q8IZK6)
- Construct: expressed in transfected cells
- Experiment: Fluorescent TRPML2 assay (performed as for TRPML1, substituting the TRPML2 subtype)
- Format: cell-based
- Condition Summary: fluorescent calcium assay
pEC50: −log10 of the molar value.
Quantity Measured: pEC50

Inquiry: Quick one: pEC50 for C[C@@H]1CN(c2ncnc3c2c(N(C)C)cn3-c2cccc(Cl)c2)CCN1C(=O)OC(C)(C)C ?
Reply text: 6.30 to 7.00

Inquiry: Continue with C[C@@H]1CN(c2ncnc3c2c(N(C)C)cn3-c2cc(C#N)ccn2)CCN1C(=O)OC(C)(C)C
Reply text: > 7.00

Inquiry: Continue with C[C@@H]1CN(c2ncnc3c2c(C2CC2)cn3-c2cccc(Cl)c2F)CCN1C(=O)OC(C)(C)C
Reply text: 6.30 to 7.00

Inquiry: Continue with C[C@H]1CN(C(=O)OC(C)(C)C)CCN1c1ncnc2c1c(N1CCCC1)cn2C1CCCC(F)(F)C1 (stereo partly drawn)
Reply text: < 5.70

Inquiry: Continue with C[C@H]1CN(C(=O)OC(C)(C)C)CCN1c1ncnc2c1c(N1CCCC1)cn2-c1cc(Cl)cc(C#N)c1
Reply text: 5.70 to 6.30

Inquiry: Continue with C[C@H]1CN(C(=O)OC(C)(C)C)CCN1c1ncnc2c1c(C1CC1)cn2C12CCC(CC1)CC2
Reply text: 6.30 to 7.00

Inquiry: Continue with Cc1cncc(-n2cc(-c3cccnc3)c3c(N4C[C@@H](C)N(C(=O)OC(C)(C)C)C[C@@H]4C)ncnc32)c1
Reply text: < 5.70

Inquiry: Continue with CC[C@H]1CN(c2ncnc3c2c(C2CC2)cn3-c2cc(F)cc(F)c2)CCN1C(=O)OC(C)(C)C
Reply text: 5.70 to 6.30

Let us move to another entry and its pEC50.
Inquiry: Quick one: pEC50 for Cc1nccnc1-c1cn(-c2ccccc2)c2ncnc(N3C[C@@H](C)N(C(=O)OC(C)(C)C)C[C@@H]3C)c12 ?
Reply text: < 5.70
